- PROTOCOL_DETAILS: yeast display, Sf9 membrane polyspecificity reagent, FACS + sequencing; frameworks hold sequencing errors
READOUT_LABEL: polyreactivity (PSR sort gate)

BIOSEQUENCE: QVHLVDSGGGLVQAGGSLSLSCAYSGSIFLTNAMGWYRHAPGKERELVDAITGDGSTNYADSVKGRFTISRDNAKNTVYLKMNSLIPEDTAVYYCDKDRGWSQWVDYDYWGQGTQVTVSS
RESULT: low polyreactivity
//
BIOSEQUENCE: QVQLVESGGGLVQAGGSLRLSCAASGGTFGVNTMGWYSHAPGKERELVAAISNRGVSTYYADSVKGRFTISRDNAKNTVYLQMNSQKPEDTAVYYCASTNSYVYSITLDRYDYWGQGTQVTVSS
RESULT: low polyreactivity
//
BIOSEQUENCE: QVQLVESGGGLDQAGGCLRLSSAASGIIFYYNRMGCDRQAPGKERDLVADISGDGSTNYADSVKGRFTISRDNAKNTLYLQINSLKPDDTAFYYCNSDDIFRPRDDLYDYWGQGTQVTVSS
RESULT: low polyreactivity
//
BIOSEQUENCE: QVQLVESGGGLVQAGGSLRLICAASGSTFPVNAMGWYRQAPGKERELVAAIRSSTGRTYYADSVKGRFTISRDNAKNTVYLQMNSLKPEDTAVYYCAAYYLGQYEYDYWGQGTQVTVSS
RESULT: low polyreactivity
//
BIOSEQUENCE: QVQLVESGGGLVQAGGSLRLSCAASGSTFGFNAMGWYRQAPGKEREFVAAITRSGGSTYYADSVKGRFTISRDNAKNTVYLQMNSLKPEDTAVYYCAKRRYFYSQWVRAFDYWGQGTQVTVSS
RESULT: high polyreactivity
//
BIOSEQUENCE: QVQLVESGGGLVQAGGSLRLSCAASGSIFDVNTMGWYRQAPGKERELVAAITNGYRTNYADSVKGRFTISRDNAKNTVYLQMNILKPEDTSVYYCNTDQGTTSDYCFWGQGTQVTVSS
RESULT: low polyreactivity
//
BIOSEQUENCE: QVQLVESGGGLVQAGGSLRLSCAASGYTFSQNAMGWYRQAPGKERELVAAITWSGAGTYYADSVKGRFTISRDNAKNTVYLQMNSLKPEDTAVYYCAAREWTSQDRQHNYWGQGTQVTVSS
RESULT: low polyreactivity
//
BIOSEQUENCE: QVQLVESGGGLVQAGGSLRLSCAASGSIFLHNAMGWYRQAPGKDRELVAAISGTGGRTYYADSVKGRFTISRDNAKNTVYLQMNSLKPEDTAVYYCAKAARTRGGYGYWGQGTQVTVSS
RESULT: high polyreactivity
//
BIOSEQUENCE: QVQLVESGGGLVQAGGSLRLSCAASGSIFYSYAMGWYRQAPGKERELVAAISWDASTYYADSVKGRFTISRDNAKNTVYLQMNSLKPEDTAVSYCNADIPYYFVYDAYDYWGQGTQVTVSS
RESULT: low polyreactivity
//
BIOSEQUENCE: QVQLVESGGGLVQAGGSLRLSCAASGIIFRSYAMGWYRQAPGKERELVAGISLSGGSTYYADSVKGRFTISRDNAKNTVYLQMNSLKPEDTAVYYCATRNHYFRALRYGYCGQGTQVTVSS
RESULT: high polyreactivity
//
BIOSEQUENCE: QVQLVESGGGLVQAGGSLRLSCAASGFIFTYYAMGWYRQAPGKERELVAAISSSGGRTAYADSVKGRFTISRDNAKNTVYLQMNSLKPEDTAVYFCNARGTYRVANYDYWGQGTQVTVSS
RESULT: high polyreactivity
//
BIOSEQUENCE: QVQLVESGGGLVQAGGSLRLSCAASGSTFGYNAMGWYRQAPGKERELVAAITRRGGITYYADSVKGRFTISRDNAKNTVYLQMNSLKPEDTAVYYCAKRLGYPGNSRNYYYWGQGTQVTVSS
RESULT: high polyreactivity
